assay explanation: Cytotoxicity against primary mouse macrophages
Type: cell-based
condition context: primary mouse macrophages; read-out: PMM CC50
value type: CC50

structure: O=[N+]([O-])c1ccc(Cn2cc(-c3ccc([N+](=O)[O-])cc3)nn2)cc1
experimental result: > 50 µM

###

assay explanation: Cytotoxicity against primary mouse macrophages
Assay type: cell-based
condition context: mouse, primary mouse macrophages (PMM)
Listed below: CC50 values for each entry.

structure: O=C(O)c1ccc(Cn2cc(-c3ccc([N+](=O)[O-])cc3)nn2)cc1
CC50: > 50 µM
--
structure: O=C(Cn1cc(-c2ccc([N+](=O)[O-])cc2)nn1)NCc1ccccn1
CC50: > 50 µM
--
structure: Nc1ccc(-c2cn(Cc3ccc([N+](=O)[O-])cc3)nn2)cc1
CC50: > 50 µM
--
structure: N#Cc1ccc(CNC(=O)Cn2cc(-c3ccc([N+](=O)[O-])cc3)nn2)cc1
CC50: 35.4 µM

###

assay explanation: Preliminary cytotoxicity assay, resazurin
Format: cell-based
condition context: MRC-5SV2 lung fibroblast cells; human MRC-5 cell line, 3 days incubation
Listed below: CC50 at 3 days values for each entry.

structure: CC(=O)OC[C@H]1O[C@@H](n2cc(-c3ccc([N+](=O)[O-])cc3)nn2)[C@H](OC(C)=O)[C@@H](OC(C)=O)[C@H]1OC(C)=O
CC50 at 3 days: > 50 µM

structure: O=C(Cn1cc(-c2ccc([N+](=O)[O-])cc2)nn1)NCc1ccc(O)cc1
CC50 at 3 days: > 50 µM

structure: O=C(Cn1cc(-c2ccc([N+](=O)[O-])cc2)nn1)NCc1ccccn1
CC50 at 3 days: > 50 µM

structure: O=[N+]([O-])c1ccc(Cn2cc(-c3cccnc3)nn2)cc1
CC50 at 3 days: 5.06 µM

###

System: LLC-MK2 cells
assay explanation: Cellular viability (MTT), noninfected LLC-MK2
Format: cell-based
condition context: noninfected LLC-MK2, Table 3 (treatment previously to infection); read-out: CC50 non infected MK2
Listed below: CC50 values for each entry.

compound: O=[N+]([O-])c1ccc(-c2cn([C@@H]3O[C@H](CO)[C@H](O)[C@H](O)[C@H]3O)nn2)cc1 [Compound 19]
assay system: LLC-MK2 cells
CC50: > 80 µM
//
compound: CC(=O)OC[C@H]1O[C@@H](n2cc(-c3ccc([N+](=O)[O-])cc3)nn2)[C@H](OC(C)=O)[C@@H](OC(C)=O)[C@H]1OC(C)=O [Compound 16]
assay system: LLC-MK2 cells
CC50: > 80 µM

###

assay explanation: Cytotoxicity against primary mouse macrophages
Format: cell-based
condition context: mouse, primary mouse macrophages (PMM)
Listed below: CC50 values for each entry.
value type: CC50

structure: O=[N+]([O-])c1ccc(Cn2cc(-c3ccccc3CO)nn2)cc1
value type: CC50
experimental result: > 50 µM

structure: N#Cc1ccc(Cn2cc(-c3ccc([N+](=O)[O-])cc3)nn2)cc1
value type: CC50
experimental result: > 50 µM

structure: O=[N+]([O-])c1ccc(Cn2cc(-c3ccc(CO)cc3)nn2)cc1
value type: CC50
experimental result: > 50 µM

structure: O=[N+]([O-])c1ccc(Cn2cc(-c3cccnc3)nn2)cc1
value type: CC50
experimental result: > 50 µM

structure: O=C(Cn1cc(-c2ccc([N+](=O)[O-])cc2)nn1)NCc1cccnc1
value type: CC50
experimental result: > 50 µM

structure: COc1cc(OC)cc(-c2cn(Cc3ccc([N+](=O)[O-])cc3)nn2)c1
value type: CC50
experimental result: > 50 µM

structure: O=C(Cn1cc(-c2ccc([N+](=O)[O-])cc2)nn1)NCc1ccc(O)cc1
value type: CC50
experimental result: > 50 µM

###

Test system: T. cruzi Tulahuen CL2 β-galactosidase strain
assay explanation: Antitrypanosomal screening, anti-T. cruzi (trypomastigote) activity, CPRG photometric method
Type: cell-based
condition context: Trypanosoma cruzi; Tulahuen CL2 β-galactosidase strain on MRC-5SV2; values in parentheses mean ± SEM of two experiments

molecule: O=C(Cn1cc(-c2ccc([N+](=O)[O-])cc2)nn1)NCc1ccccn1 [Compound 10]
unit text: µM
comparison sign: >
IC50: 50

molecule: O=[N+]([O-])c1ccc(Cn2cc(-c3cccnc3)nn2)cc1 [Compound 22]
unit text: µM
comparison sign: =
IC50: 4.17

molecule: O=C(Cn1ccnc1[N+](=O)[O-])NCc1ccccc1 [BZN, reference compound]
unit text: µM
comparison sign: =
IC50: 1.64

molecule: O=[N+]([O-])c1ccc(Cn2cc(-c3ccc(CO)cc3)nn2)cc1 [Compound 21]
unit text: µM
comparison sign: >
IC50: 50

molecule: O=C(O)c1ccc(Cn2cc(-c3ccc([N+](=O)[O-])cc3)nn2)cc1 [Compound 18]
unit text: µM
comparison sign: >
IC50: 50

###

Test system: T. cruzi Tulahuen CL2 β-galactosidase strain
assay explanation: Antitrypanosomal screening, anti-T. cruzi (trypomastigote) activity, CPRG photometric method
Format: cell-based
condition context: Trypanosoma cruzi; Tulahuen CL2 β-galactosidase strain on MRC-5SV2; values in parentheses mean ± SEM of two experiments
pIC50: −log10 of the molar value.

structure: O=C(Cn1cc(-c2ccc([N+](=O)[O-])cc2)nn1)NCc1ccc(O)cc1
pIC50: 4.51
--
structure: Cn1cncc1-c1cn(Cc2ccc([N+](=O)[O-])cc2)nn1
pIC50: < 4.30
--
structure: O=[N+]([O-])c1ccc(Cn2cc(-c3ccc([N+](=O)[O-])cc3)nn2)cc1
pIC50: < 4.30
--
structure: O=[N+]([O-])c1ccc(Cn2cc(-c3ccccc3CO)nn2)cc1
pIC50: < 4.30
--
structure: O=C(O)Cn1cc(-c2ccc([N+](=O)[O-])cc2)nn1
pIC50: < 4.30
--
structure: COc1cccc(-c2cn(Cc3ccc([N+](=O)[O-])cc3)nn2)c1
pIC50: < 4.30
--
structure: N#Cc1ccc(CNC(=O)Cn2cc(-c3ccc([N+](=O)[O-])cc3)nn2)cc1
pIC50: < 4.30
--
structure: O=C(Cn1cc(-c2ccc([N+](=O)[O-])cc2)nn1)NCc1cccnc1
pIC50: < 4.30
--
structure: CC(=O)OC[C@H]1O[C@@H](n2cc(-c3ccc([N+](=O)[O-])cc3)nn2)[C@H](OC(C)=O)[C@@H](OC(C)=O)[C@H]1OC(C)=O
pIC50: 5.22
--
structure: Nc1ccc(-c2cn(Cc3ccc([N+](=O)[O-])cc3)nn2)cc1
pIC50: < 4.30
--
structure: COc1cc(OC)cc(-c2cn(Cc3ccc([N+](=O)[O-])cc3)nn2)c1
pIC50: < 4.30
--
structure: N#Cc1ccc(Cn2cc(-c3ccc([N+](=O)[O-])cc3)nn2)cc1
pIC50: < 4.30

###

Listed below: CC50 at 24 h values for each entry.
assay explanation: Cellular viability (MTT), noninfected LLC-MK2
Format: cell-based
condition context: rhesus monkey, noninfected LLC-MK2 epithelial cells; noninfected LLC-MK2, Table 2 (treatment after infection); read-out: CC50 non infected MK2

molecule: O=C(Cn1ccnc1[N+](=O)[O-])NCc1ccccc1 [BZN, reference compound]
CC50 at 24 h: 46.9 µM
//
molecule: O=[N+]([O-])c1ccc(-c2cn([C@@H]3O[C@H](CO)[C@H](O)[C@H](O)[C@H]3O)nn2)cc1
CC50 at 24 h: > 80 µM
//
molecule: CC(=O)OC[C@H]1O[C@@H](n2cc(-c3ccc([N+](=O)[O-])cc3)nn2)[C@H](OC(C)=O)[C@@H](OC(C)=O)[C@H]1OC(C)=O
CC50 at 24 h: > 80 µM

###

Listed below: CC50 values for each entry.
Test system: C2C12 cells
assay explanation: Cellular viability (MTT), noninfected C2C12
Assay type: cell-based, murine
condition context: noninfected C2C12, Table 3 (treatment previously to infection); read-out: CC50 non infected C2C12
value type: CC50

compound: O=[N+]([O-])c1ccc(-c2cn([C@@H]3O[C@H](CO)[C@H](O)[C@H](O)[C@H]3O)nn2)cc1 [Compound 19]
experimental result: > 80 µM
//
compound: CC(=O)OC[C@H]1O[C@@H](n2cc(-c3ccc([N+](=O)[O-])cc3)nn2)[C@H](OC(C)=O)[C@@H](OC(C)=O)[C@H]1OC(C)=O [Compound 16]
experimental result: > 80 µM

###

assay explanation: Preliminary cytotoxicity assay, resazurin
Assay type: cell-based
condition context: human MRC-5 cell line, 3 days incubation
Experimental: MRC-5SV2 cell cytotoxicity was assessed following the methodology outlined in earlier literature. Briefly, cells at a concentration of 1.5 × 10^5 cells/mL were cultured with compound dilutions at 37 °C and 5% CO2. […] After 3 days of incubation, cell viability was fluorometrically assessed following the addition of 50-μL resazurin per well. Fluorescence was measured after 4 h at 37 °C (λex 550 nm, λem 590 nm). […]
value type: CC50 at 3 days

molecule: O=[N+]([O-])c1ccc(Cn2cc(-c3ccc([N+](=O)[O-])cc3)nn2)cc1 [Compound 24]
value type: CC50 at 3 days
experimental result: > 50 µM
